biological target: Follistatin-related protein 3 (Homo sapiens) (UniProt O95633); experiment: compounds binding follistatin-related protein 3 – biochemical, small-molecule microarray, 635 nm fluorescence, primary screen (AID 1105); conditions: FSTL3 binding, higher = more signal;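 further: score merges emission near 667 nm and signal to noise per printed spot across three slides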
Sequence (O95633 whole entry, looked up): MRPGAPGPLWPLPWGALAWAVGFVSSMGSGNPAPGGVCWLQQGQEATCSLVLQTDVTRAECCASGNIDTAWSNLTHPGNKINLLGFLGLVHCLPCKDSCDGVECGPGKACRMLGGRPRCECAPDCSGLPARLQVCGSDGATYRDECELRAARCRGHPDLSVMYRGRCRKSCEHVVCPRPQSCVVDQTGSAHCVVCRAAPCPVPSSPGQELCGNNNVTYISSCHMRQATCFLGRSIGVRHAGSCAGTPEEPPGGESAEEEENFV
Note to self: values exactly at 0.3 are Fulfilled. So composite z-score at or above 0.3 is Fulfilled, below is Not fulfilled.

compound	study system	class name
C=CCNC(=O)[C@@H]1[C@H]2C(=O)O[C@H](c3ccccc3)[C@H](c3ccccc3)N2[C@H](c2ccccc2OCCO)[C@@]12C(=O)Nc1ccc(C#CCCO)cc12	Follistatin-related protein 3 (Homo sapiens) (UniProt O95633)	Fulfilled
O=C1OCCC=C[C@H]2OC34C=CCN(Cn5nnc6ccccc65)C(=O)[C@H]3N(CCCO)C(=O)[C@@H]4C12 (some centres undefined)	Follistatin-related protein 3 (Homo sapiens) (UniProt O95633)	Not fulfilled
CCOC(=O)C[C@H]1[C@H](OC(=O)Cc2ccc3c(c2)OCO3)[C@@H](NC(=O)c2ccc3ccccc3n2)c2cc(OCCCO)ccc2N1C(=O)c1ccccc1	Follistatin-related protein 3 (Homo sapiens) (UniProt O95633)	Fulfilled
CC(C)N1CC=CC23O[C@@H]4C=CCCOC(=O)C4[C@H]2C(=O)N(CCCO)[C@@H]3C1=O (some centres undefined)	Follistatin-related protein 3 (Homo sapiens) (UniProt O95633)	Not fulfilled
CCOC(=O)C[C@H]1[C@H](OC(=O)c2cc3ccccc3oc2=O)[C@@H](NC(=O)CC(C)C)c2cc(OCCCO)ccc2N1C(=O)c1ccc2ccccc2n1	Follistatin-related protein 3 (Homo sapiens) (UniProt O95633)	Fulfilled
C=C(/C(=C/C[C@H](OC(=O)c1ccncc1)c1ccc(CO)o1)c1cnc2ccccc2c1)C(C)C	Follistatin-related protein 3 (Homo sapiens) (UniProt O95633)	Fulfilled
CCCCCC1=C2CNC(C)(C(=O)OC)C=C2C(C)C1=O (centres undefined)	Follistatin-related protein 3 (Homo sapiens) (UniProt O95633)	Not fulfilled
NC(=O)[C@H]1[C@@H]2C(=O)O[C@@H](c3ccccc3)[C@@H](c3ccccc3)N2[C@@H](c2ccc(OCCO)cc2)[C@]12C(=O)Nc1ccc(C#CCCO)cc12	Follistatin-related protein 3 (Homo sapiens) (UniProt O95633)	Not fulfilled
CCCCC(O)C1C=CC2C(=O)N(C)C(=O)C2N1N(c1ccccc1)c1ccccc1 (centres undefined)	Follistatin-related protein 3 (Homo sapiens) (UniProt O95633)	Fulfilled
CCCCCN1CC=CC23O[C@@H]4/C=C\CCCOC(=O)C4[C@H]2C(=O)N(C(C)CO)[C@@H]3C1=O (some centres undefined)	Follistatin-related protein 3 (Homo sapiens) (UniProt O95633)	Not fulfilled
CC#CCO[Si](C#Cc1ccccc1)(C(C)C)C(C)C	Follistatin-related protein 3 (Homo sapiens) (UniProt O95633)	Not fulfilled
C[N+](C)(C)CCCCCCNC(=O)[C@@H]1C[C@@H]2C(=O)N3CCC[C@H]3C(=O)N2[C@@H]1c1ccc(O)cc1	Follistatin-related protein 3 (Homo sapiens) (UniProt O95633)	Fulfilled
CCCCN1CC=CC23O[C@@H]4/C=C\CCC(C)OC(=O)C4[C@H]2C(=O)N(CCCO)[C@@H]3C1=O (some centres undefined)	Follistatin-related protein 3 (Homo sapiens) (UniProt O95633)	Not fulfilled
COc1ccc([Si](C)(C)[C@H]2[C@H](CC(=O)N3CCC[C@H]3CO)O[C@@]3(C(=O)N(Cc4ccc(N5CCOC5=O)cc4)c4ccccc43)[C@@H]2C)cc1	Follistatin-related protein 3 (Homo sapiens) (UniProt O95633)	Fulfilled
COC(=O)[C@@]1(Cc2ccc(OC)cc2)[C@H]2c3cc(C(=O)N(C)C)n(Cc4ccc(OC(F)(F)F)cc4)c3C[C@H]2CN1C(=O)c1ccccc1	Follistatin-related protein 3 (Homo sapiens) (UniProt O95633)	Not fulfilled
O=C1O[C@H](c2ccccc2)[C@H](c2ccccc2)N2[C@H]1[C@@H](C(=O)O)[C@]1(C(=O)Nc3ccc(C#CCCO)cc31)[C@H]2c1ccccc1OCCO	Follistatin-related protein 3 (Homo sapiens) (UniProt O95633)	Not fulfilled
C=C(/C(=C/C[C@H](OC(C)=O)c1ccc(CO)o1)c1cnc2ccccc2c1)C(C)C	Follistatin-related protein 3 (Homo sapiens) (UniProt O95633)	Fulfilled
COCCCNC(=O)[C@@]1(CCC(=O)OC(C)(C)C)N=C(c2ccc(OCCCO)cc2)O[C@H]1c1ccccc1N=[N+]=[N-]	Follistatin-related protein 3 (Homo sapiens) (UniProt O95633)	Not fulfilled
NC(=O)NCC#Cc1ccc2c(c1)[C@]1(C(=O)N2)[C@H](c2ccccc2OCCO)N2[C@H](c3ccccc3)[C@H](c3ccccc3)OC(=O)[C@H]2[C@@H]1C(=O)O	Follistatin-related protein 3 (Homo sapiens) (UniProt O95633)	Not fulfilled
[N-]=[N+]=Nc1ccccc1[C@@H]1OC(c2ccc(OCCCO)cc2)=N[C@]1(Cc1ccccc1)C(=O)O	Follistatin-related protein 3 (Homo sapiens) (UniProt O95633)	Fulfilled
O=C1C[C@]2(c3ccc([N+](=O)[O-])cc3)C(=O)N(C3CC3)c3cc(CO)ccc3[C@H]2N1CC12CC3CC(CC(C3)C1)C2	Follistatin-related protein 3 (Homo sapiens) (UniProt O95633)	Not fulfilled
COc1ccc(C#Cc2ccc3c(c2)[C@]2(C(=O)N3)[C@H](c3ccc(OCCO)cc3)N3[C@H](c4ccccc4)[C@H](c4ccccc4)OC(=O)[C@H]3[C@@H]2C(=O)NC[C@H](O)c2ccccc2)cc1	Follistatin-related protein 3 (Homo sapiens) (UniProt O95633)	Fulfilled
CC1CC/C=C\[C@H]2OC34C=CCN(c5ccc(Cl)cc5)C(=O)[C@H]3N(C(C)CO)C(=O)[C@]4(C)C2C(=O)O1 (some centres undefined)	Follistatin-related protein 3 (Homo sapiens) (UniProt O95633)	Not fulfilled
O=C1OCCC=C[C@H]2OC34C=CCN(c5ccc6ccccc6c5)C(=O)[C@H]3N(CCCO)C(=O)[C@@H]4C12 (some centres undefined)	Follistatin-related protein 3 (Homo sapiens) (UniProt O95633)	Not fulfilled
CC(C)N1C(=O)c2ccccc2[C@@H](C(=O)NCCN2CCOCC2)[C@@H]1c1ccc(CO)cc1	Follistatin-related protein 3 (Homo sapiens) (UniProt O95633)	Not fulfilled
CN1C(=O)C2C=CC(C(O)c3cccn3C)N(Nc3ccc([N+](=O)[O-])cc3[N+](=O)[O-])C2C1=O (centres undefined)	Follistatin-related protein 3 (Homo sapiens) (UniProt O95633)	Not fulfilled
CCOC(=O)C[C@H]1[C@H](OC(=O)c2cc3ccccc3oc2=O)[C@@H](NC(=O)c2ccccc2)c2cc(OCCCO)ccc2N1C(=O)c1ccccc1	Follistatin-related protein 3 (Homo sapiens) (UniProt O95633)	Fulfilled
COCC(=C=CC[C@H](O)c1ccc(OCCO)cc1)CCO	Follistatin-related protein 3 (Homo sapiens) (UniProt O95633)	Fulfilled
C=C(COC)/C(=C/C[C@H](OC(=O)c1ccncc1)c1ccc(CO)o1)c1cnc2ccccc2c1	Follistatin-related protein 3 (Homo sapiens) (UniProt O95633)	Fulfilled
